The reader will find reported recombinant UMI read abundance (log10) values listed item by item below.
Assay: recombinant UMI read abundance after kanamycin selection (control-corrected) (log10(CPM+1)); higher = more efficient recombination; extreme values may be limits of the assay; sequences stand for … in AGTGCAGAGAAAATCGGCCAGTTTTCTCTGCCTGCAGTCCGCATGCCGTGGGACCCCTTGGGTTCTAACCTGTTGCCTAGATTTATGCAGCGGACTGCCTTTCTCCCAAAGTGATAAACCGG…AGGTTGGTTTCACT; site = the 11-nt donor;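 also: IS621 bridge recombinase in Escherichia coli cells against a fixed T5 target plasmid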
Please state the value as a number alone, without comment.

[[record]]
sequence_entry = "TAATGAGCATGGACCGGTTTTCCCGGTAATCCGTATTTGGA (site TAATGAGCTTC)"
test_result = 0.729

[[record]]
sequence_entry = "CAGGAACCATGGACCGGTTTTCCCGGTAATCCGTATTTGAT (site CAGGAACCTAT)"
test_result = 0


Quick one: recombinant UMI read abundance (log10) of TCAGAGACATGGACCGGTTTTCCCGGTAATCCGTATTTGCA (site TCAGAGACTCG) ? 1.34

What about CACCTGGCATGGACCGGTTTTCCCGGTAATCCGTATTTGGA (site CACGTGGCTTC) ? 0.0355

What about CGAAATCCATGGACCGGTTTTCCCGGTAATCCGTATTTGCT (site CGGAATCCTAA) ? 0

---

Assay: recombinant UMI read abundance after kanamycin selection (control-corrected) (log10(CPM+1)); higher = more efficient recombination; extreme values may be limits of the assay; sequences stand for … in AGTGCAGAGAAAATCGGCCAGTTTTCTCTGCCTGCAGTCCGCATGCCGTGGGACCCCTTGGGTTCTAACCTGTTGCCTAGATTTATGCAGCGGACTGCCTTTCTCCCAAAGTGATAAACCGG…AGGTTGGTTTCACT; site = the 11-nt donor
recombinant UMI read abundance (log10) below 1 gives 0.0; recombinant UMI read abundance (log10) at or above it gives 1.0.

Below, 6 sequences whose answers are already recorded.
[[record]]
sequence_entry = "TTAACTGCATGGACCGGTTTTCCCGGTAATCCGTATTTGTG (site TTACCTGCTCA)"
label_value = 0.0

[[record]]
sequence_entry = "GTGGATGCATGGACCGGTTTTCCCGGTAATCCGTATTTGGT (site GTGTATGCTAC)"
label_value = 1.0

[[record]]
sequence_entry = "AGGACAACATGGACCGGTTTTCCCGGTAATCCGTATTTGAC (site AGGACGACTGT)"
label_value = 0.0

[[record]]
sequence_entry = "CGGGGCGCATGGACCGGTTTTCCCGGTAATCCGTATTTGAA (site CGGGGCGCTTT)"
label_value = 1.0

[[record]]
sequence_entry = "AATGTTTCATGGACCGGTTTTCCCGGTAATCCGTATTTGAC (site AATGTATCTGT)"
label_value = 1.0

[[record]]
sequence_entry = "CGAGAACCATGGACCGGTTTTCCCGGTAATCCGTATTTGGG (site CGAGCACCTCC)"
label_value = 0.0


# check: recombinant UMI read abundance (log10) of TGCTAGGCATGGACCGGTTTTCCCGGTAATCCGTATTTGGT (site TGCGAGGCTAC) is greater than or equal to 1 0.0

What about ATCTATACATGGACCGGTTTTCCCGGTAATCCGTATTTGCC (site ATCTATACTGA) ? 1.0

What about TGCTCAGCATGGACCGGTTTTCCCGGTAATCCGTATTTGGG (site TGCTCAGCTCC) ? 0.0

What about ATACTATCATGGACCGGTTTTCCCGGTAATCCGTATTTGAC (site ATACTATCTGT) ? 1.0

What about CAAGCAGCATGGACCGGTTTTCCCGGTAATCCGTATTTGCC (site CAAGCAGCTAG) ? 1.0
